Test system: EKVX NSCLC
test name: NCI-60 one-dose screen, 48 h (100 = growth as untreated, 0 = no growth, -100 = all killed)
run parameters: 10 µM unless noted
This is part of a sample that, as a whole, favours compounds with a hit. Of some 83,000 tested, about 20% had one in any assay.
Item-by-item account of growth
experimental readout: growth (%)

>>> experimental_value("COc1cc2oc(-c3cccc(NC(=O)[C@H](CC(N)=O)NC(=O)OC(C)(C)C)c3)cc(=O)c2c(OC)c1OC")
99.1
>>> experimental_value("COc1ccc(C(=O)/C=C/c2cc3c(cc2Br)OCO3)cc1S(N)(=O)=O")
4.57
>>> experimental_value("Cc1ncsc1-c1ccc(CNC(=O)[C@@H]2C[C@@H](O)CN2C(=O)[C@@H](NC(=O)C2(F)CC2)C(C)(C)C)c(OCCOCCOCCOCCOc2nc(Nc3cc(S(C)(=O)=O)ccc3N[C@@H](c3cccc4c3OC(F)(F)O4)c3ncccc3Cl)nc(N3CCNCC3)n2)c1")
80.8
>>> experimental_value("N#Cc1c(-c2cccnc2)cc(-c2ccc3ccccc3c2)[nH]c1=O")
87.1

----------
System: NCI-H460 lung
test name: NCI-60 one-dose screen, 48 h
run parameters: 10 µM unless noted
Compounds without any hit were thinned out: in the full panel of roughly 83,000, 20% have a hit. Calls of active or inactive are those of the source. The calls were made as follows: active = growth percent below 10; inactive = the rest.
Classes used: t = active, f = inactive

>>> assigned_label("C=C1CC[C@@H]2[C@]3(C)COC(c4cn(-c5ccccc5)nc4-c4ccccc4)O[C@@H]3CC[C@@]2(C)[C@@H]1C/C=C1/C(=O)OC[C@H]1O (stereo partly drawn)")
"t"
>>> assigned_label("COc1ccc(C(=O)/C=C/c2ccc(Oc3nc(Nc4ccc(F)cc4)nc(N(C)C)n3)c(OC)c2)cc1")
"f"
>>> assigned_label("C#CCOc1cc(N(CC)CC)ccc1C(C(=O)NC(C)(C)C)N(C(=O)C1CCc2cc(F)ccc2O1)c1ccccc1F (stereo not drawn)")
"f"
>>> assigned_label("Cc1ccc(S(=O)(=O)c2nc(S(=O)(=O)c3ccc(C)cc3)c(N3CCC(O)CC3)s2)cc1")
"f"
>>> assigned_label("COc1cc(-c2cc(-c3cccc(OCC(=O)O)c3)[nH]c(=O)c2C#N)cc(OC)c1OC")
"f"
>>> assigned_label("COC(=O)/C=C/c1cccc2c1C(=O)NC(C)(c1cc3ccccc3oc1=O)N2 (stereo not drawn)")
"f"
>>> assigned_label("CCCn1cc(-c2nc(Nc3ccc(C(=O)NCCCCNc4cccc5c4C(=O)N(C4CCC(=O)NC4=O)C5=O)cc3)nc3[nH]ccc23)cn1 (stereo not drawn)")
"f"
>>> assigned_label("O=S(=O)(Nc1cccc(-n2cnc3cc(-c4ccc(O)cc4)ccc32)c1)C1CC1")
"f"

----------
Tested on: SN12C renal
test name: NCI-60 one-dose screen, 48 h
run parameters: 10 µM unless noted
About 83,000 compounds went through this panel and 20% of them were active in at least one assay; those are over-represented in the sample as a whole. Active and inactive are the calls of the source. How the source made its calls: active means growth percent below 10; inactive means the rest.
Classes used: 1.0 = active, 0.0 = inactive

>>> assigned_label("COc1ccc(C2=NN(C(C)=O)C(c3ccc(OCc4ccc(Cl)cc4)c(OC)c3)C2)cc1OC (stereo not drawn)")
0.0
>>> assigned_label("CC1=C(C(=O)c2ccccc2)C(c2cccc(Cl)c2Cl)n2c(nc3ccccc32)N1 (stereo not drawn)")
0.0
>>> assigned_label("C=Cn1cc(C(=O)O)c(=O)c2cc(F)c(N3CCN(c4nccc(-c5nccs5)n4)CC3)cc21")
1.0
>>> assigned_label("CCOC(=O)C1=C(N)N(c2ccccc2)C2=C(C(=O)CC(C)(C)C2)C1c1cccc(Cl)c1Cl (stereo not drawn)")
0.0
>>> assigned_label("CCCSc1nc(Nc2ccc(S(N)(=O)=O)cc2)c(C#N)c(-c2ccc(Cl)cc2)n1")
1.0
>>> assigned_label("N#Cc1c(-c2ccc(Br)cc2)nc2n[nH]c(-c3ccc(Br)cc3)c2c1-c1ccc(F)cc1")
0.0
>>> assigned_label("NS(=O)(=O)c1ccc(-n2cc(-c3cccc(NC(=O)c4cc(C(F)(F)F)cc(C(F)(F)F)c4)c3)nn2)cc1")
0.0
>>> assigned_label("O=C(c1ccc(OCCN2CCOCC2)cc1)C1[C@H](c2ccc(Cl)cc2)[C@@H](c2ccccc2)NC12C(=O)Nc1ccc(Br)cc12 (stereo partly drawn)")
1.0
>>> assigned_label("COc1ccc(-c2nc3cc(C)ccc3n2CC(=O)N=Nc2c(O)[nH]c3ccccc23)cc1")
1.0
>>> assigned_label("CC(C)c1ccc2c(N)c(C(=O)Nc3cccc(C(F)(F)F)c3)sc2n1")
0.0
>>> assigned_label("C#CCOc1cc(N(CC)CC)ccc1C(C(=O)NC(C)(C)C)N(C(=O)C1CCc2cc(F)ccc2O1)c1ccccc1Br (stereo not drawn)")
0.0
>>> assigned_label("COc1c(F)ccc(C(=O)Nc2ccc3nc(NC(=O)C4CCCN(S(=O)(=O)C5CC5)C4)sc3c2)c1F (stereo not drawn)")
0.0
>>> assigned_label("O=C1CCCc2cc(OCC(=O)N3CCCCC3)ccc2N1")
0.0
>>> assigned_label("CC12CC[C@@H]3[C@]4(C)COC(c5cn[nH]c5-c5ccc(Cl)cc5)O[C@@H]4CC[C@@]3(C)[C@@H]1CC(C1=CCOC1=O)O2 (stereo partly drawn)")
0.0
>>> assigned_label("OCC1(CCCc2ccccc2)CCCN(c2nccc3ccccc23)C1 (stereo not drawn)")
0.0
>>> assigned_label("NS(=O)(=O)c1ccc(NNC(=O)CCC(=O)c2ccccc2)cc1")
0.0
>>> assigned_label("CN(C)CCCNC(=O)c1cc(NC(=O)c2cc(NC(=O)c3ccc(C#Cc4ccccc4)cc3)cn2C)cn1C")
1.0
>>> assigned_label("O=C(O)c1ccc(-c2ccc(/C=N/NC(=O)c3[nH]c4ccc(Br)cc4c3-c3ccccc3)s2)cc1")
0.0
